tested on: NQO1 activation in BEAS-2B cells; test: BEAS-2B cellular MTT assay of NQO1 activation, 0% HSA; type: cell-based; details: Homo sapiens, serum free, read-out: BEAS EC50 (nM) serum free
assay readout: EC50 (nM)
Please state the figure in nM; there is no need to write the unit.

Worked set:
Cc1c2ccc3c1nnn3CCCCCn1cc(c3ccccc31)C(=O)N1CCc3ccc(cc3C1)C2CC(=O)O (stereo not shown): 994
O=C(O)CC1c2ccc(nc2)OCCCCOc2ccc(cc2Cl)C(=O)N2CCc3ccc1cc3C2 (stereo not shown): 190
C[C@H](C(=O)O)[C@@H]1c2ccc(nc2)OCCCCCc2ccc(cc2)C(=O)N2CCc3ccc1cc3C2 (single isomer, unassigned): 0.3

Continue with the compound presented below.
Entry under test: Cc1c2ccc3c1nnn3CCCCCCOc1ccc(c(F)c1)C(=O)N1CCc3ccc(cc3C1)[C@@H]2[C@@H](C)C(=O)O . Its EC50 was 3.6

---

Reported EC50 values for the following compounds.
tested on: NQO1 activation in BEAS-2B cells; test: BEAS-2B cellular MTT assay of NQO1 activation, 0% HSA; type: cell-based; conditions: Homo sapiens, serum free, read-out: BEAS EC50 (nM) serum free
Please state the figure in nM; there is no need to write the unit.

Entry under test: O=C(O)C[C@@H]1c2ccc(nc2)OCCCCCc2ccc(cc2)C(=O)N2CCc3ccc1cc3C2 [Compound 173] . Its EC50 was 3.7

Entry under test: Cc1cc2ccc1C(=O)N1CCc3ccc(cc3C1)[C@@H]([C@H](C)C(=O)O)c1ccc3c(c1)nnn3CCCCCCO2 [Compound 294] . Its EC50 was 450

Entry under test: O=C(O)CC1c2ccc3c(c2)CN(CC3)C(=O)c2ccc(c3ccccc23)OCCCCCCn2nnc3cc1ccc32 (stereo not shown) [Compound 338] . Its EC50 was 25.3

Entry under test: Cc1c2ccc3c1nnn3CCCCCOc1ccc(c(F)c1F)C(=O)N1CCc3ccc(cc3C1)C2CC(=O)O (stereo not shown) [Compound 306] . Its EC50 was 68.1

Entry under test: Cc1c2ccc3c1nnn3CCCCCCc1ccc(cc1)C(=O)N1CCc3ccc(cc3C1)[C@H]2CC(=O)O [Compound 202] . Its EC50 was 58.2

Entry under test: Cc1cc2ccc1C(=O)N1CCc3ccc(cc3C1)[C@H]([C@H](C)C(=O)O)c1ccc3c(c1)nnn3CCCCCCO2 [Compound 292] . Its EC50 was 349

Entry under test: Cc1c2ccc3c1nnn3CCCCCCOc1ccc(cc1)C(=O)N1CCc3ccc(cc3C1)[C@@H]2[C@H](C)C(=O)O [Compound 179] . Its EC50 was 113

---

system: NQO1 activation in BEAS-2B cells; assay: BEAS-2B cellular MTT assay of NQO1 activation, 0% HSA; assay type: cell-based; settings: Homo sapiens, Serum Free W, read-out: BEAS EC50 (nM) Serum Free W
assay readout: EC50 (nM)
Please state the figure in nM; there is no need to write the unit.

Entry under test: Cc1c2ccc3c1nnn3CCCCCc1cnc3c(c1)cc(n3C)C(=O)N1CCc3ccc(cc3C1)[C@H]2CC(=O)O . Its EC50 was 19

Entry under test: COc1cc2ccc1C(=O)N1CCc3ccc(cc3C1)[C@H](CC(=O)O)c1ccc3c(nnn3CCCCCC2)c1C . Its EC50 was 7.2

Entry under test: Cc1c2ccc3c1nnn3CCCCCc1ccc(cc1)C(=O)N1CCc3ccc(cc3C1)[C@@H]2[C@H](C)C(=O)O . Its EC50 was 130

Entry under test: Cc1cc2ncc1[C@H](CC(=O)O)c1ccc3c(c1)CN(CC3)C(=O)c1ccc(cc1)COCCCO2 . Its EC50 was 43

Entry under test: COc1cc2ccc1C(=O)N1CCc3ccc(cc3C1)[C@@H](CC(=O)O)c1ccc3c(nnn3CCCCCC2)c1C . Its EC50 was 32.1

Entry under test: Cc1c2cnc3c1nnn3CCCCCCCc1ccc(cc1)C(=O)N1CCc3ccc(cc3C1)[C@@H]2CC(=O)O . Its EC50 was 11.7

These data points were gathered from patent US12692274B2.
